test_method_notes: Tissue distribution study in mice, 20 mg/kg i.p.
Assay type: in vivo, C57BL/6 J mice
measurement_conditions: male, C57BL/6J, mouse, muscle homogenate, ip, 20 mg/kg, Muscle, 2 h, IP 20 mg/kg, read-out: Mean Plasma or Tissue Homogenate Conc
property: concentration at 2 h (ng/mL)
Give the number; ng/mL is assumed, so skip it.

Record `c1ccc(-c2nnc(-c3ccccn3)nc2NC2CCCCC2)cc1` , field concentration at 2 h: 192

---

System: FB303 patient fibroblasts
test_method_notes: Toxicity / nuclear morphology in FB303 TPI-Df patient fibroblasts
Assay type: cell-based, human
measurement_conditions: TPI-Df patient fibroblasts
property: toxicity in patient cells

C/C(=N\NC(=O)c1ccccc1O)C(C)(C)C | non-toxic
O=C(N/N=C/c1ccc(O)cc1O)c1ccn(Cc2cccc(Br)c2)n1 | non-toxic

---

test_method_notes: Tissue distribution study in mice, 20 mg/kg i.p.
Format: in vivo, C57BL/6 J mice
measurement_conditions: male, C57BL/6 J, mouse, plasma, ip, 20 mg/kg, Plasma, 2 h, IP 20 mg/kg, read-out: Plasma or Tissue Homogenate Conc (individual animals)
property: concentration at 2 h (ng/mL)
Report only the number, with the unit ng/mL understood.

compound `c1ccc(-c2nnc(-c3ccccn3)nc2NC2CCCCC2)cc1` , concentration at 2 h observed: 5560

---

test_method_notes: Tissue distribution study in mice, 20 mg/kg i.p.
Format: in vivo, C57BL/6 J mice
measurement_conditions: male, C57BL/6J, mouse, muscle, ip, 20 mg/kg, Muscle, 1 h, IP 20 mg/kg, read-out: Mean Tissue
property: concentration at 1 h (ng/g)
Output spec: scalar in ng/g, unitless text.

Reported concentration at 1 h of `c1ccc(-c2nnc(-c3ccccn3)nc2NC2CCCCC2)cc1` : 1560

---

test_method_notes: Tissue distribution study in mice, 20 mg/kg i.p.
Format: in vivo, C57BL/6 J mice
measurement_conditions: male, C57BL/6J, mouse, liver homogenate, ip, 20 mg/kg, Liver, 1 h, IP 20 mg/kg, read-out: Mean Plasma or Tissue Homogenate Conc
property: concentration at 1 h (ng/mL)
Respond with the bare value in ng/mL.

concentration at 1 h recorded for this compound, `c1ccc(-c2nnc(-c3ccccn3)nc2NC2CCCCC2)cc1` , is 3030

---

test_method_notes: Tissue distribution study in mice, 20 mg/kg i.p.
Type: in vivo, C57BL/6 J mice
measurement_conditions: male, C57BL/6J, muscle/plasma; Muscle, 2 h; mouse, IP 20 mg/kg; read-out: Mean Tissue/ Plasma Conc Ratio
Protocol: Male C57BL/6 J (Jackson Laboratories) wild type mice (age: 40–60 days) weighing 25–30 g, were used for the tissue distribution study. Mice were randomly assigned in two groups: blank (n = 1) and treatment. The treatment group received 20 mg/kg compound 424 intraperitoneally (n = 15; 3 animals per time point i.e., 0.5, 1, 2, 4, and 8 h). Molport 002–877–424 was formulated in a vehicle consisting of 20 % DMSO, 50 % PEG300, and 30 % sterile water. […]
property: Kp at 2 h
# print the numeric value only

Record `c1ccc(-c2nnc(-c3ccccn3)nc2NC2CCCCC2)cc1` . Reported Kp at 2 h: 0.16

---

test_method_notes: Tissue distribution study in mice, 20 mg/kg i.p.
Format: in vivo, C57BL/6 J mice
measurement_conditions: male, C57BL/6J, mouse, kidney, ip, 20 mg/kg, Kidney, 0.5 h, IP 20 mg/kg, read-out: Mean Tissue
property: concentration at 0.5 h (ng/g)
Give the number; ng/g is assumed, so skip it.

// concentration at 0.5 h value for c1ccc(-c2nnc(-c3ccccn3)nc2NC2CCCCC2)cc1 [MolPort-002-877-424, C1CCC(CC1)Nc2nc(nnc2c3ccccc3)c4ccccn4] : 9830

---

test_method_notes: Tissue distribution study in mice, 20 mg/kg i.p.
Format: in vivo, C57BL/6 J mice
measurement_conditions: male, C57BL/6J, mouse, liver homogenate, ip, 20 mg/kg, Liver, 0.5 h, IP 20 mg/kg, read-out: Plasma or Tissue Homogenate Conc (individual animals)
property: concentration at 0.5 h (ng/mL)
Write the value in ng/mL as a bare number.

Kindly note the recorded concentration at 0.5 h for c1ccc(-c2nnc(-c3ccccn3)nc2NC2CCCCC2)cc1 [MolPort-002-877-424, C1CCC(CC1)Nc2nc(nnc2c3ccccc3)c4ccccn4] , which is 4280

---

test_method_notes: Tissue distribution study in mice, 20 mg/kg i.p.
Type: in vivo, C57BL/6 J mice
measurement_conditions: male, C57BL/6 J, mouse, brain, ip, 20 mg/kg, Brain, 8 h, IP 20 mg/kg, read-out: Mean Tissue
property: concentration at 8 h (ng/g)
Your answer should be a plain number; it is taken to be in ng/g.

Sure, the documented concentration at 8 h for c1ccc(-c2nnc(-c3ccccn3)nc2NC2CCCCC2)cc1 [MolPort-002-877-424, C1CCC(CC1)Nc2nc(nnc2c3ccccc3)c4ccccn4] is 89.3

---

test_method_notes: Tissue distribution study in mice, 20 mg/kg i.p.
Format: in vivo, C57BL/6 J mice
measurement_conditions: male, C57BL/6 J, mouse, brain homogenate, ip, 20 mg/kg, Brain, 4 h, IP 20 mg/kg, read-out: Mean Plasma or Tissue Homogenate Conc
property: concentration at 4 h (ng/mL)
Respond numerically; units are ng/mL and should not be typed.

Lab note: measured concentration at 4 h of `c1ccc(-c2nnc(-c3ccccn3)nc2NC2CCCCC2)cc1` was 57.5

---

test_method_notes: Tissue distribution study in mice, 20 mg/kg i.p.
Type: in vivo, C57BL/6 J mice
measurement_conditions: male, C57BL/6 J, mouse, kidney homogenate, ip, 20 mg/kg, Kidney, 1 h, IP 20 mg/kg, read-out: Mean Plasma or Tissue Homogenate Conc
property: concentration at 1 h (ng/mL)
Reply with just the number (in ng/mL).

The recorded concentration at 1 h for c1ccc(-c2nnc(-c3ccccn3)nc2NC2CCCCC2)cc1 [MolPort-002-877-424, C1CCC(CC1)Nc2nc(nnc2c3ccccc3)c4ccccn4] is 2130

---

test_method_notes: Tissue distribution study in mice, 20 mg/kg i.p.
Assay type: in vivo, C57BL/6 J mice
measurement_conditions: male, C57BL/6J, kidney/plasma; Kidney, 0.5 h; mouse, IP 20 mg/kg; read-out: Mean Tissue/ Plasma Conc Ratio
property: Kp at 0.5 h
Write the value as a bare number.

Looking up `c1ccc(-c2nnc(-c3ccccn3)nc2NC2CCCCC2)cc1` , I see its Kp at 0.5 h listed as 0.94

---

test_method_notes: Mouse pharmacokinetics, 10 mg/kg i.p.
Assay type: in vivo, CD-1 mice
measurement_conditions: CD-1, plasma, ip, 10 mg/kg intraperitoneal, read-out: peak plasma concentration (Cmax), molar
Method: Mouse pharmacokinetics (PK) Mouse PK studies were performed exactly as described in [18-20] […] Plasma concentrations were measured as described to determine a concentration vs. time profile. The area under the plasma concentration vs time curve (AUC) was calculated using the linear trapezoidal method. […]
property: Cmax

Per the records, this compound ( c1ccc(-c2nnc(-c3ccccn3)nc2NC2CCCCC2)cc1 [MolPort-002-877-424, C1CCC(CC1)Nc2nc(nnc2c3ccccc3)c4ccccn4] ) has Cmax equal to ~30 µM
